# Tested on: NCI-H661
# method notes: relative viability (nuclei count vs DMSO), 5 days (fraction); higher = more cells survive
# condition details: first compound 0.253 µM
Exam item: assign true to entries whose relative viability is below 0.9 and false to entries at or above 0.9. Note that a value of exactly 0.9 receives false.

{"compound": "Oc1nc(-c2ccc(C(F)(F)F)cc2)nc2c1CSCC2 [XAV939] + C[C@]1(O)C[C@@H](c2nc(-c3ccc4ccc(-c5ccccc5)nc4c3)c3c(N)nccn32)C1 [Linsitinib] (partner 1 µM)", "assigned class": "true"}
{"compound": "C=C1C(=O)O[C@@H](CCCCCCCC)[C@@H]1C(=O)O [C-75] + CS(=O)(=O)N1CCN(Cc2cc3nc(-c4cccc5[nH]ncc45)nc(N4CCOCC4)c3s2)CC1 [Pictilisib] (partner 1 µM)", "assigned class": "true"}
{"compound": "Oc1nc(-c2ccc(C(F)(F)F)cc2)nc2c1CSCC2 [XAV939] + CC(=O)Nc1cccc(-n2c(=O)n(C3CC3)c(=O)c3c(Nc4ccc(I)cc4F)n(C)c(=O)c(C)c32)c1 [Trametinib] (partner 0.02 µM)", "assigned class": "true"}
{"compound": "Oc1nc(-c2ccc(C(F)(F)F)cc2)nc2c1CSCC2 [XAV939] + Nc1nc2[nH]cc(CCc3ccc(C(=O)N[C@@H](CCC(=O)O)C(=O)O)cc3)c2c(=O)[nH]1 [Pemetrexed] (partner 0.2 µM)", "assigned class": "true"}
{"compound": "C=C1C(=O)O[C@@H](CCCCCCCC)[C@@H]1C(=O)O [C-75] + COc1cc2c(Oc3ccc(NC(=O)C4(C(=O)Nc5ccc(F)cc5)CC4)cc3F)ccnc2cc1OCCCN1CCOCC1 [Foretinib] (partner 0.25 µM)", "assigned class": "false"}
{"compound": "C=C1C(=O)O[C@@H](CCCCCCCC)[C@@H]1C(=O)O [C-75] + O=C(c1cc(Cc2n[nH]c(=O)c3ccccc23)ccc1F)N1CCN(C(=O)C2CC2)CC1 [Olaparib] (partner 8 µM)", "assigned class": "true"}
{"compound": "C=C1C(=O)O[C@@H](CCCCCCCC)[C@@H]1C(=O)O [C-75] + C[C@@H](Oc1cc(-c2cnn(C3CCNCC3)c2)cnc1N)c1c(Cl)ccc(F)c1Cl [Crizotinib] (partner 1 µM)", "assigned class": "false"}
{"compound": "C=C1C(=O)O[C@@H](CCCCCCCC)[C@@H]1C(=O)O [C-75] + CC(C)C[C@H](NC(=O)[C@H](Cc1ccccc1)NC(=O)c1cnccn1)B(O)O [Bortezomib] (partner 0.002 µM)", "assigned class": "true"}
{"compound": "C=C1C(=O)O[C@@H](CCCCCCCC)[C@@H]1C(=O)O [C-75] + Nc1ncn([C@H]2C[C@H](O)[C@@H](CO)O2)c(=O)n1 [Decitabine] (partner 2 µM)", "assigned class": "true"}

====

# Test system: NCI-H650
# method notes: relative viability (nuclei count vs DMSO), 5 days (fraction); higher = more cells survive
# condition details: first compound 1.265 µM

{"compound": "O=C(O)c1ccc(-c2c[nH]c3ncc(-c4ccccc4)cc23)cc1C1CCCC1 + CS(=O)(=O)CCNCc1ccc(-c2ccc3ncnc(Nc4ccc(OCc5cccc(F)c5)c(Cl)c4)c3c2)o1 [Lapatinib] (partner 2 µM)", "relative viability": 0.561}
{"compound": "O=C(O)c1ccc(-c2c[nH]c3ncc(-c4ccccc4)cc23)cc1C1CCCC1 + CC(=O)c1c(C)c2cnc(Nc3ccc(N4CCNCC4)cn3)nc2n(C2CCCC2)c1=O [Palbociclib] (partner 0.5 µM)", "relative viability": 0.279}
{"compound": "O=C(O)c1ccc(-c2c[nH]c3ncc(-c4ccccc4)cc23)cc1C1CCCC1 + CCNC(=O)c1noc(-c2cc(C(C)C)c(O)cc2O)c1-c1ccc(CN2CCOCC2)cc1 [Luminespib] (partner 0.01 µM)", "relative viability": 0.293}
{"compound": "O=C(O)c1ccc(-c2c[nH]c3ncc(-c4ccccc4)cc23)cc1C1CCCC1 + Nc1nc2[nH]cc(CCc3ccc(C(=O)N[C@@H](CCC(=O)O)C(=O)O)cc3)c2c(=O)[nH]1 [Pemetrexed] (partner 0.2 µM)", "relative viability": 0.782}
{"compound": "O=C(O)c1ccc(-c2c[nH]c3ncc(-c4ccccc4)cc23)cc1C1CCCC1 + CC(=O)Nc1cccc(-n2c(=O)n(C3CC3)c(=O)c3c(Nc4ccc(I)cc4F)n(C)c(=O)c(C)c32)c1 [Trametinib] (partner 0.02 µM)", "relative viability": 0.579}
{"compound": "O=C(O)c1ccc(-c2c[nH]c3ncc(-c4ccccc4)cc23)cc1C1CCCC1 + Nc1ncn([C@H]2C[C@H](O)[C@@H](CO)O2)c(=O)n1 [Decitabine] (partner 2 µM)", "relative viability": 0.274}
{"compound": "O=C(O)c1ccc(-c2c[nH]c3ncc(-c4ccccc4)cc23)cc1C1CCCC1 + COc1cc2c(Oc3ccc(NC(=O)C4(C(=O)Nc5ccc(F)cc5)CC4)cc3F)ccnc2cc1OCCCN1CCOCC1 [Foretinib] (partner 0.25 µM)", "relative viability": 0.71}
{"compound": "O=C(O)c1ccc(-c2c[nH]c3ncc(-c4ccccc4)cc23)cc1C1CCCC1 + NC(=O)Nc1cc(-c2cccc(F)c2)sc1C(=O)N[C@H]1CCCNC1 [AZD7762] (partner 0.2 µM)", "relative viability": 0.947}
{"compound": "O=C(O)c1ccc(-c2c[nH]c3ncc(-c4ccccc4)cc23)cc1C1CCCC1 + Cc1nc(Nc2ncc(C(=O)Nc3c(C)cccc3Cl)s2)cc(N2CCN(CCO)CC2)n1 [Dasatinib] (partner 0.075 µM)", "relative viability": 0.353}

====

Reported relative viability values for the following compounds.
# Tested on: SW 900
# method notes: relative viability (nuclei count vs DMSO), 5 days (fraction); higher = more cells survive
# condition details: first compound 0.253 µM
outcome measure: relative viability

{"compound": "C=C1C(=O)O[C@@H](CCCCCCCC)[C@@H]1C(=O)O [C-75] + CC(=O)c1c(C)c2cnc(Nc3ccc(N4CCNCC4)cn3)nc2n(C2CCCC2)c1=O [Palbociclib] (partner 0.5 µM)", "reported": 0.647}
{"compound": "Oc1nc(-c2ccc(C(F)(F)F)cc2)nc2c1CSCC2 [XAV939] + N=C(N)NC(=N)NCCc1ccccc1 [Phenformin] (partner 250 µM)", "reported": 0.49}
{"compound": "Oc1nc(-c2ccc(C(F)(F)F)cc2)nc2c1CSCC2 [XAV939] + O=C(c1cc(Cc2n[nH]c(=O)c3ccccc23)ccc1F)N1CCN(C(=O)C2CC2)CC1 [Olaparib] (partner 8 µM)", "reported": 0.844}
{"compound": "Oc1nc(-c2ccc(C(F)(F)F)cc2)nc2c1CSCC2 [XAV939] + Nc1nc2[nH]cc(CCc3ccc(C(=O)N[C@@H](CCC(=O)O)C(=O)O)cc3)c2c(=O)[nH]1 [Pemetrexed] (partner 0.2 µM)", "reported": 0.45}

====

# Tested on: LU99A
# method notes: relative viability (nuclei count vs DMSO), 5 days (fraction); higher = more cells survive
# condition details: first compound 0.005 µM
relative viability values by entry

{"molecule": "CC1(C)CCC(c2ccc(Cl)cc2)=C(CN2CCN(c3ccc(C(=O)NS(=O)(=O)c4ccc(N[C@H](CCN5CCOCC5)CSc5ccccc5)c(S(=O)(=O)C(F)(F)F)c4)cc3)CC2)C1 [Navitoclax] + N=C(N)NC(=N)NCCc1ccccc1 [Phenformin] (partner 250 µM)", "relative viability": 0.878}
{"molecule": "CC1(C)CCC(c2ccc(Cl)cc2)=C(CN2CCN(c3ccc(C(=O)NS(=O)(=O)c4ccc(N[C@H](CCN5CCOCC5)CSc5ccccc5)c(S(=O)(=O)C(F)(F)F)c4)cc3)CC2)C1 [Navitoclax] + CC(C)C[C@H](NC(=O)[C@H](Cc1ccccc1)NC(=O)c1cnccn1)B(O)O [Bortezomib] (partner 0.002 µM)", "relative viability": 1.08}
{"molecule": "CC1(C)CCC(c2ccc(Cl)cc2)=C(CN2CCN(c3ccc(C(=O)NS(=O)(=O)c4ccc(N[C@H](CCN5CCOCC5)CSc5ccccc5)c(S(=O)(=O)C(F)(F)F)c4)cc3)CC2)C1 [Navitoclax] + Cc1cc(Nc2cc(N3CCN(C)CC3)nc(Sc3ccc(NC(=O)C4CC4)cc3)n2)n[nH]1 [Tozasertib] (partner 0.1 µM)", "relative viability": 0.264}

====

The following compounds are shown together with reported relative viability values.
# Test system: NCI-H3122
# method notes: relative viability (nuclei count vs DMSO), 5 days (fraction); higher = more cells survive
# condition details: first compound 0.1581 µM
outcome measure: relative viability

{"compound": "CC1(C)CCC(c2ccc(Cl)cc2)=C(CN2CCN(c3ccc(C(=O)NS(=O)(=O)c4ccc(N[C@H](CCN5CCOCC5)CSc5ccccc5)c(S(=O)(=O)C(F)(F)F)c4)cc3)CC2)C1 [Navitoclax] + NC(=O)Nc1cc(-c2cccc(F)c2)sc1C(=O)N[C@H]1CCCNC1 [AZD7762] (partner 0.2 µM)", "system tested": "NCI-H3122", "outcome measure": "relative viability", "reported": 0.973}
{"compound": "CC1(C)CCC(c2ccc(Cl)cc2)=C(CN2CCN(c3ccc(C(=O)NS(=O)(=O)c4ccc(N[C@H](CCN5CCOCC5)CSc5ccccc5)c(S(=O)(=O)C(F)(F)F)c4)cc3)CC2)C1 [Navitoclax] + COc1cccc2cc(-c3nc([C@H]4CC[C@H](C(=O)O)CC4)n4ncnc(N)c34)[nH]c12 [OSI-027] (partner 0.5 µM)", "system tested": "NCI-H3122", "outcome measure": "relative viability", "reported": 0.902}
{"compound": "CC1(C)CCC(c2ccc(Cl)cc2)=C(CN2CCN(c3ccc(C(=O)NS(=O)(=O)c4ccc(N[C@H](CCN5CCOCC5)CSc5ccccc5)c(S(=O)(=O)C(F)(F)F)c4)cc3)CC2)C1 [Navitoclax] + CC(C)C[C@H](NC(=O)[C@H](Cc1ccccc1)NC(=O)c1cnccn1)B(O)O [Bortezomib] (partner 0.002 µM)", "system tested": "NCI-H3122", "outcome measure": "relative viability", "reported": 1.03}
